Exercise: state measured Cmax for each of the compounds provided.
Assay: Cmax in Sprague-Dawley rat at 30 mg/kg, po
Assay type: ADME, organism-based
Parameters: dose 30 mg/kg, route oral
Settings: in vivo
Put your answer as a value accompanied by its unit after it.

Example entries and their recorded answers appear below.
>  <compound>
C[C@@H]1CN(c2ccc(F)cc2C(F)(F)F)CCN1S(=O)(=O)c1cccc(OC(C)(C)C(=O)O)c1

>  <Cmax>
9180 ng/mL

$$$$
>  <compound>
C[C@@H]1CN(c2ccc(F)cc2C(F)(F)F)CCN1S(=O)(=O)c1cccc(N2CCN(C)CC2)c1

>  <Cmax>
246 ng/mL

$$$$
>  <compound>
C[C@@H]1CN(c2ccc(F)cc2C(F)(F)F)CCN1S(=O)(=O)c1cccc(-n2cncn2)c1

>  <Cmax>
149 ng/mL

$$$$

Now let's try a different one.
Tell us which Cmax value is on record for C[C@@H]1CN(c2ccc(F)cc2C(F)(F)F)CCN1S(=O)(=O)c1cccc(N2CCC(O)C2)c1 (some centres undefined)
185 ng/mL

----------
Assay: Clearance in mouse at 2 mg/kg, iv
Assay type: ADME, organism-based
Parameters: dose 2 mg/kg, route intravenous
Details: in vivo
Exercise: state measured clearance for each of the compounds provided.
Answers are plain numbers, in mL/min/kg.

Example entries and their recorded answers appear below.
>  <compound>
C[C@@H]1CN(c2ccc(F)cc2C(F)(F)F)CCN1S(=O)(=O)c1cccc(N2CCC(C(=O)O)C2)c1 (stereo not given in full)

>  <units of measure>
mL/min/kg

>  <clearance>
55

$$$$
>  <compound>
C[C@@H]1CN(c2ccc(F)cc2C(F)(F)F)CCN1S(=O)(=O)c1cccc(OC(C)(C)C(=O)O)c1

>  <units of measure>
mL/min/kg

>  <clearance>
25

$$$$
>  <compound>
C[C@@H]1CN(c2ccc(F)cc2C(F)(F)F)CCN1S(=O)(=O)c1cccc(N2CCC(O)C2)c1 (stereo not given in full)

>  <units of measure>
mL/min/kg

>  <clearance>
54

$$$$
>  <compound>
C[C@@H]1CN(c2ccc(F)cc2C(F)(F)F)CCN1S(=O)(=O)c1cccc(N2CCN(C)CC2)c1

>  <units of measure>
mL/min/kg

>  <clearance>
36

$$$$

Now let's try a different one.
Tell us which clearance value is on record for C[C@@H]1CN(c2ccc(F)cc2C(F)(F)F)CCN1S(=O)(=O)c1cccc(-n2cncn2)c1
13

----------
Test: Metabolic stability assessed as half life in mouse liver microsomes
measured parameter: half-life (min)
Give bare numbers, in min.

>  <compound>
C[C@@H]1CN(c2ccc(F)cc2C(F)(F)F)CCN1S(=O)(=O)c1cccc(-n2cncn2)c1

>  <measured parameter>
half-life

>  <observed result>
12

$$$$
>  <compound>
O=S(=O)(c1ccc(Cl)c(Cl)c1)N1CCN(c2ncccc2C(F)(F)F)CC1

>  <measured parameter>
half-life

>  <observed result>
5

$$$$
>  <compound>
C[C@@H]1CN(c2ncccc2Cl)C[C@H](C)N1S(=O)(=O)c1ccc(Cl)c(Cl)c1

>  <measured parameter>
half-life

>  <observed result>
3

$$$$

Now let's try a different one.
Tell us which half-life value is on record for C[C@@H]1CN(c2ccc(F)cc2C(F)(F)F)CCN1S(=O)(=O)c1cccc(N2CCC(O)C2)c1 (some centres undefined)
11

----------
Biological target: 11-beta-hydroxysteroid dehydrogenase type 2 (Homo sapiens) (UniProt P80365)
Sequence (P80365 whole entry): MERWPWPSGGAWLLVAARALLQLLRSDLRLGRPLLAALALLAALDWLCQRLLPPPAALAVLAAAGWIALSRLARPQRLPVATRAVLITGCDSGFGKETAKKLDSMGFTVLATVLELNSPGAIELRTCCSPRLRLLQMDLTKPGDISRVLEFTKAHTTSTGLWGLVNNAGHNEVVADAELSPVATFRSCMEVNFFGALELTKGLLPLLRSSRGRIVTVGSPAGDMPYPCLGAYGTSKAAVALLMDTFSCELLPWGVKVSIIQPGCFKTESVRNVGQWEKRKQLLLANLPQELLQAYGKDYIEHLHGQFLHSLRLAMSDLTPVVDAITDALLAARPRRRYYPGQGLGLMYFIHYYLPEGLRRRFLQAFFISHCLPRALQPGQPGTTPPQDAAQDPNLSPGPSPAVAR
Assay: Inhibition of 11betaHSD2 at 100 uM by cell based assay
Active and inactive are the calls of the source. The rule behind the calls is not given here.
measured parameter: Activity

>  <molecule>
O=S(=O)(c1ccc(Cl)c(Cl)c1)N1CCN(c2ncccc2C(F)(F)F)CC1

>  <observed result>
inactive

$$$$
>  <molecule>
COC(=O)C1CCN(c2cccc(S(=O)(=O)N3CCN(c4ccc(F)cc4C(F)(F)F)C[C@H]3C)c2)C1 (stereo partly drawn)

>  <observed result>
inactive

$$$$
>  <molecule>
C[C@@H]1CN(c2ccc(F)cc2C(F)(F)F)CCN1S(=O)(=O)c1cccc(N2CCCC2)c1

>  <observed result>
inactive

$$$$

----------
Exercise: state measured pIC50 for each of the molecules provided.
Target: 11-beta-hydroxysteroid dehydrogenase 1 (Mus musculus)
Experiment: Inhibition of mouse 11betaHSD1 expressed in CHO cells by cell based assay
Answers are plain numbers, as −log10 of the molar value.

Example entries and their recorded answers appear below.
>  <molecule>
O=S(=O)(c1ccc(Cl)c(Cl)c1)N1CCN(c2ccccc2C(F)(F)F)CC1

>  <observed result>
6.38

$$$$
>  <molecule>
COC(=O)C1CCN(c2cccc(S(=O)(=O)N3CCN(c4ccc(F)cc4C(F)(F)F)C[C@H]3C)c2)C1 (some centres undefined)

>  <observed result>
8.00

$$$$
>  <molecule>
C[C@@H]1CN(c2ncccc2Cl)[C@@H](C)CN1S(=O)(=O)c1ccc(Cl)c(Cl)c1 (relative stereo)

>  <observed result>
5.33

$$$$
>  <molecule>
C[C@@H]1CN(c2ccc(F)cc2C(F)(F)F)CCN1S(=O)(=O)c1cccc(N2CC[C@H](O)C2)c1

>  <observed result>
7.70

$$$$
>  <molecule>
CCNC(=O)N1CCN(c2cccc(S(=O)(=O)N3CCN(c4ccc(F)cc4C(F)(F)F)C[C@H]3C)c2)CC1

>  <observed result>
7.92

$$$$

Hi there! I need pIC50 for each item below, if you can.
1. O=S(=O)(c1ccc(Cl)c(Cl)c1)N1CCN(c2ncccc2C(F)(F)F)CC1
2. O=S(=O)(c1ccc(Cl)c(Cl)c1)N1CCN(c2ccc(F)cc2C(F)(F)F)CC1
3. CC(C)N1CCN(c2cccc(S(=O)(=O)N3CCN(c4ccc(F)cc4C(F)(F)F)C[C@H]3C)c2)CC1
4. C[C@@H]1CN(c2ccc(F)cc2C(F)(F)F)CCN1S(=O)(=O)c1cccc(OC(C)(C)C(=O)O)c1

6.72
6.60
6.82
7.43

Hi there! I need pIC50 for each item below, if you can.
1. C[C@@H]1CN(c2ccc(F)cc2C(F)(F)F)CCN1S(=O)(=O)c1cccc(N2CCN(C)CC2)c1
2. C[C@@H]1CN(c2ccc(F)cc2C(F)(F)F)CCN1S(=O)(=O)c1cccc(-n2cccn2)c1
3. C[C@@H]1CN(c2ccc(F)cc2C(F)(F)F)CCN1S(=O)(=O)c1cccc(N2CCC(C(N)=O)C2)c1 (some centres undefined)
4. C[C@@H]1CN(c2ccc(F)cc2C(F)(F)F)CCN1S(=O)(=O)c1cccc(-n2ccnc2)c1
5. C[C@@H]1CN(c2ccc(F)cc2C(F)(F)F)CCN1S(=O)(=O)c1cccc(N2CCCCC2)c1
6. C[C@@H]1CN(c2ccc(F)cc2C(F)(F)F)CCN1S(=O)(=O)c1cccc(N2CCCC2)c1
7. C[C@@H]1CN(c2ccc(F)cc2C(F)(F)F)CCN1S(=O)(=O)c1cccc(-n2cncn2)c1
8. C[C@@H]1CN(c2ccc(F)cc2C(F)(F)F)CCN1S(=O)(=O)c1cccc(N2CCC(C(=O)O)C2)c1 (some centres undefined)

1. 7.92
2. 7.92
3. 7.96
4. 7.96
5. 8.00
6. 7.80
7. 8.00
8. 8.00

Hi there! I need pIC50 for each item below, if you can.
1. C[C@@H]1CN(c2ccc(F)cc2C(F)(F)F)CCN1S(=O)(=O)c1cccc(N2CCOCC2)c1
2. C[C@@H]1CN(c2ccc(F)cc2C(F)(F)F)CCN1S(=O)(=O)c1cccc(N2CCC(O)C2)c1 (some centres undefined)

1. 7.96
2. 7.89

Hi there! I need pIC50 for each item below, if you can.
1. C[C@@H]1CN(c2ncccc2Cl)C[C@H](C)N1S(=O)(=O)c1ccc(Cl)c(Cl)c1
2. CCN1CCN(c2cccc(S(=O)(=O)N3CCN(c4ccc(F)cc4C(F)(F)F)C[C@H]3C)c2)CC1
3. C[C@@H]1CN(c2ccc(F)cc2C(F)(F)F)CCN1S(=O)(=O)c1cccc(N2CC[C@@H](O)C2)c1

1. 5.16
2. 7.54
3. 7.92

----------
Target: 11-beta-hydroxysteroid dehydrogenase 1 (Mus musculus, UniProt P50172)
Sequence (P50172 whole entry): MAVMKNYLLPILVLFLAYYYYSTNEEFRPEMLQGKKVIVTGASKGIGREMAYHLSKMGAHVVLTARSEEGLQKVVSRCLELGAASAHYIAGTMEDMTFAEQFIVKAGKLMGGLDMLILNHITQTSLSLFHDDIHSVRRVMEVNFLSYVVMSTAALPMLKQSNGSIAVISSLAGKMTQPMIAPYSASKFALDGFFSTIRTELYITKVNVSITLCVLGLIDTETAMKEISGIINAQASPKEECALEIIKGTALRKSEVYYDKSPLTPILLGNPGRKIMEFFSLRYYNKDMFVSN
Experiment: Inhibition of C57BL/6 mouse 11betaHSD1 in presence of human serum
Exercise: state measured pIC50 for each of the molecules provided.
Numbers only, as −log10 of the molar value.

Example entries and their recorded answers appear below.
>  <molecule>
C[C@@H]1CN(c2ccc(F)cc2C(F)(F)F)CCN1S(=O)(=O)c1cccc(OC(C)(C)C(=O)O)c1

>  <study target>
11-beta-hydroxysteroid dehydrogenase 1 (Mus musculus, UniProt P50172)

>  <observed result>
6.89

$$$$
>  <molecule>
C[C@@H]1CN(c2ccc(F)cc2C(F)(F)F)CCN1S(=O)(=O)c1cccc(-n2cnnc2)c1

>  <study target>
11-beta-hydroxysteroid dehydrogenase 1 (Mus musculus, UniProt P50172)

>  <observed result>
6.92

$$$$
>  <molecule>
C[C@@H]1CN(c2ccc(F)cc2C(F)(F)F)CCN1S(=O)(=O)c1cccc(N2CCC(O)C2)c1 (some centres undefined)

>  <study target>
11-beta-hydroxysteroid dehydrogenase 1 (Mus musculus, UniProt P50172)

>  <observed result>
7.96

$$$$

Now let's try a different one.
Tell us which pIC50 value is on record for C[C@@H]1CN(c2ccc(F)cc2C(F)(F)F)CCN1S(=O)(=O)c1cccc(N2CCOCC2)c1
7.25

Attribution: ChEMBL document CHEMBL1155083
